Kindly supply the reported IC50 values for the records listed here.
biological target: SRC (Homo sapiens); assay: Inhibition of a panel of kinases, in vitro HotSpot kinase assay: SRC; type: biochemical; conditions: Table 13, A compounds; 1 μM ATP
Sequence (P12931 whole entry): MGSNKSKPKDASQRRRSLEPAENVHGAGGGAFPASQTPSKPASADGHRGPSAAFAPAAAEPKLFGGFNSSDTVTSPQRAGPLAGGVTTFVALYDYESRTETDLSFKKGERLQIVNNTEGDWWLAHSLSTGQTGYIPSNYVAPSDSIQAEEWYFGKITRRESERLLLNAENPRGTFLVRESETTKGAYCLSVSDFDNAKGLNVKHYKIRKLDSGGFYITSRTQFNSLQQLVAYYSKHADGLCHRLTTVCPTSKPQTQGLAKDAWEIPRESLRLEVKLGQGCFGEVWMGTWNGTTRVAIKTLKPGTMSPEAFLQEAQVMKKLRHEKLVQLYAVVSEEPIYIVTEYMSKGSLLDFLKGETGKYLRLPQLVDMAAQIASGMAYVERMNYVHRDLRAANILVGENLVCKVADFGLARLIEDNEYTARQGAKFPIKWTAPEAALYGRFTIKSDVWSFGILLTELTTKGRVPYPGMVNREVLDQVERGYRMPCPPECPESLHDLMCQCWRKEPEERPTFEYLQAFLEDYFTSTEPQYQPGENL

Request: Requested field: IC50. Item: Cn1cc(Nc2nc(N3CCC[C@@H](n4ccc5cc(C6CC6)ccc5c4=O)C3)cnc2C(N)=O)cn1
Result: 1000 to 10000 nM

Request: # IC50 lookup, item C[C@@H]1[C@H](NC(=O)c2ccc(C3CC3)cc2)CCCN1c1cnc(C(N)=O)c(Nc2cnn(CCN(C)C)c2)n1
Result: 100 to 1000 nM

Request: Item under review: C[C@@H]1[C@H](NC(=O)c2ccc(C3CC3)cc2)CCCN1c1cnc(C(N)=O)c(Nc2ccc(N3CCN(C)CC3)cc2)n1 . Reported IC50?
Result: 10 to 100 nM

Request: Could you tell me which IC50 is on file for C[C@@H]1[C@H](NC(=O)c2ccc(C3CC3)cc2F)CCCN1c1cnc(C(N)=O)c(Nc2ccc(N3CCN(C)CC3)c(F)c2)n1 ?
Result: 10 to 100 nM

Request: Would you kindly share the measured IC50 for C[C@@H]1[C@H](NC(=O)c2ccc(C(C)(C)C)cc2)CCCN1c1cnc(C(N)=O)c(Nc2ccc(N3CCN(C)CC3)cc2)n1 ?
Result: 1000 to 10000 nM

Request: Fill in: IC50 of COCCn1cc(Nc2nc(N3CCC[C@@H](NC(=O)c4ccc(C5CC5)cc4)[C@H]3C)cnc2C(N)=O)cn1 is ___
Result: 100 to 1000 nM

Request: Requested field: IC50. Item: C[C@@H]1[C@H](NC(=O)c2ccc(C3CC3)cc2)CCCN1c1cnc(C(N)=O)c(Nc2cnn(C)c2)n1
Result: 100 to 1000 nM

Request: State the recorded IC50 for this entry: CN1CCN(c2ccc(Nc3nc(N4CCC[C@@H](n5ccc6cc(C7CC7)ccc6c5=O)C4)cnc3C(N)=O)cc2)CC1
Result: 100 to 1000 nM

Request: Value lookup for IC50; key = Cn1cc(Nc2nc(N3C[C@H](NC(=O)c4ccc(C5CC5)cc4)CC(F)(F)C3)cnc2C(N)=O)cn1
Result: 100 to 1000 nM

Request: Bench note: what IC50 did C[C@@H]1[C@H](NC(=O)c2ccc(C3CC3)cn2)CCCN1c1cnc(C(N)=O)c(Nc2ccc(N3CCN(C)CC3)cc2)n1 show?
Result: 10 to 100 nM
